Listing of recorded Dmax by entry.
measurement target: BRAF G466V (Homo sapiens, UniProt P15056, G466V)
Construct: Horizon Discovery (HCT-116 BRAF−/− cells); host or cells: HCT-116 BRAF−/− cells, clone 8, lentiviral transduction
Sequence (P15056 whole entry G466V): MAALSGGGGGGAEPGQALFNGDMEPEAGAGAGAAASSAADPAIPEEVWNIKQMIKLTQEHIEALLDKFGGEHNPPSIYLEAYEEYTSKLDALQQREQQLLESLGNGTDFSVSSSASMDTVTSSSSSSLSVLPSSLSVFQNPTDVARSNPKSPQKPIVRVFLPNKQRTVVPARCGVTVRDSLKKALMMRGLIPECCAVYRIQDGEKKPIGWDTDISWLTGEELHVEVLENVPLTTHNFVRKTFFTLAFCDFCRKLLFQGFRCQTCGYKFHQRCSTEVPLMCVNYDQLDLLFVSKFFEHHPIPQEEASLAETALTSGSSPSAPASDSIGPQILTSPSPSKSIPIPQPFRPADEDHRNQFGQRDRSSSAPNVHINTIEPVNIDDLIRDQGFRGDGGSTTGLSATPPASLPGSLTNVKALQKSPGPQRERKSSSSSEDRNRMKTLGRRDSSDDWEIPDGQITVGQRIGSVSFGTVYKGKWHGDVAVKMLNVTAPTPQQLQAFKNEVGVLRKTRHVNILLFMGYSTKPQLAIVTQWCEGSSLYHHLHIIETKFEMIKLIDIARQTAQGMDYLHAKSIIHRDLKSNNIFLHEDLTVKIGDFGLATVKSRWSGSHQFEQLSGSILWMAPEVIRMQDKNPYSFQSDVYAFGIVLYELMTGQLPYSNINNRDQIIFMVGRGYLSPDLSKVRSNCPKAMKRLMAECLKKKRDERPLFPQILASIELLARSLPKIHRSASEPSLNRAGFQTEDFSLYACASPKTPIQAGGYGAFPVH
assay text: BRAF HiBiT degradation assay, C-terminal HiBiT-tagged BRAF G466V overexpressed in HCT-116 BRAF−/− cells (clone 8), Nano-Glo HiBiT Lytic assay
Format: cell-based
test context: HCT-116; BRAF G466V; percentage protein degraded at maximal compound effect relative to DMSO

CCCS(=O)(=O)Nc1cccc(-c2cn(-c3ccc(N4CCN(CC5CCN(c6ccc(C7CCC(=O)NC7=O)cn6)CC5)CC4)nc3)nc2-c2ccncc2)c1F (racemic) | 30 to 70%
CCCS(=O)(=O)Nc1cccc(-c2nc(C(C)(C)C)sc2-c2ccnc(Nc3cnn(C4CCN(C(=O)CN5CCC(c6ccc(NC7CCC(=O)NC7=O)cc6)CC5)CC4)c3)n2)c1F (racemic) | < 30%

Please turn your attention to the following entry.
Field request: Dmax | item: CCN(C)S(=O)(=O)Nc1cccc(-c2nc(C3CCN(C(=O)C4CCN(C(=O)C5CCN(c6ccc(C7CCC(=O)NC7=O)cn6)CC5)CC4)CC3)sc2-c2ccnc(N)n2)c1F (racemic)
> 70%
